tgt: Recombinant Human DLL4 (human, UniProt Q9NR61 27-524)
Sequence (Q9NR61 27-524 limits assumed): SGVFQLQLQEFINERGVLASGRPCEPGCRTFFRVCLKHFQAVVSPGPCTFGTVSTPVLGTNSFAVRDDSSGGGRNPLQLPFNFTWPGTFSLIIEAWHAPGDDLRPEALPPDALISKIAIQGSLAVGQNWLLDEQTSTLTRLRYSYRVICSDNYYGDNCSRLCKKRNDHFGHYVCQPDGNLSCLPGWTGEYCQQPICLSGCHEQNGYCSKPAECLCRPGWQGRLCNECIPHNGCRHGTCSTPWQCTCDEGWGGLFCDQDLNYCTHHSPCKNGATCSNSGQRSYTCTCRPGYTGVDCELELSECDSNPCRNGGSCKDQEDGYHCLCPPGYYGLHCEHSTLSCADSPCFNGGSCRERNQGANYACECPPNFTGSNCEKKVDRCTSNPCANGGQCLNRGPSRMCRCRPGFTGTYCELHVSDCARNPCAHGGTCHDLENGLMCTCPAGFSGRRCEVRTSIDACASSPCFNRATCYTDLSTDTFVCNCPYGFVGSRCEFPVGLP
experiment: SPR (BIACORE)
readout: koff (s⁻¹)
Give your result in s⁻¹ as a bare value.

Item: AB331 (antibody, human IgG1, kappa, V domains shown, CDR-grafted parent antibody) VH: QVQLQQSGAELMKPGASVKLSCKVTGGSISSSSYYWGWIKQRPGHGLEWIGDIYYTGSTYYNPSLKSKVTITVDTSSNTFYIQLISLTTEDSAIYYCARQALAMGGGSDKWGQGTLLTVSA VL: DYLLTQSPAILSVSPGERVSFSCSGQRLGDKYASWYQQRTNGSPRLVIYEDSKRPSGIPSRFSGGNSGDDATLSINSVESEDIADYYCQAWDRDTGVFGAGTKLELKR | koff: 0.00018

Item: AB316 (antibody, human IgG1, kappa, V domains shown, CDR-grafted parent antibody) VH: EVQLVESGGGLVQPANSLKLSCAVSGGSISSSSYYWGWIRQSPKKGLEWIGDIYYTGSTYYNPSLKSRVTISVDTAKNTFYLQMDSLRSEDTATYYCARQALAMGGGSDKWGQGVLVTVSS VL: DYRLTQSPASLSASLGETVNIECSGQRLGDKYASWYQQKPGKSPQLVIYEDSKRPSGIPSRFSGSNSGDQASLKINSLQSEDVATYYCQAWDRDTGVFGGGTKLELKR | koff: 9.2e-05
